Overview of recorded Inhibition of binding (%) for various binders
- experimental.target: hCMV gH + gL + UL128 + UL130 + UL131A (co-expressed in HEK293T cells) (human cytomegalovirus), P12824
- assay.overview: competitor: 2C12-biotin; cell staining
- test.settings: remark: other sources report otherwise
Provide the measurement as a number trailed by its unit.

These solved cases illustrate the format of a correct answer.
7I13 (antibody, V domains shown) VH: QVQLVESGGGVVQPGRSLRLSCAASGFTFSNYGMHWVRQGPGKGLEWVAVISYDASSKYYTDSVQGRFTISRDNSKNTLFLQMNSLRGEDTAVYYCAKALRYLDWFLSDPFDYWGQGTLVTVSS VL: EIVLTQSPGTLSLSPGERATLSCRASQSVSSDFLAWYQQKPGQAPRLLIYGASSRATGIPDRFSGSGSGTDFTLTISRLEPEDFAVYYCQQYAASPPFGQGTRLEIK :: 0%
4N10 (antibody, V domains shown) VH: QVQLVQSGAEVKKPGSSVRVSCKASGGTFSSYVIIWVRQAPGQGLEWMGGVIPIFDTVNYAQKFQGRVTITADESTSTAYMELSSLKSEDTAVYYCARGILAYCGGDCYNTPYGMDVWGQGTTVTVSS VL: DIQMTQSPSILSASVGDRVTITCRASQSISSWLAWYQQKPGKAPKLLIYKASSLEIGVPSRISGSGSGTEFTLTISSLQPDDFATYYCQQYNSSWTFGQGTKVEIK :: 0%
9I6 (antibody, V domains shown) VH: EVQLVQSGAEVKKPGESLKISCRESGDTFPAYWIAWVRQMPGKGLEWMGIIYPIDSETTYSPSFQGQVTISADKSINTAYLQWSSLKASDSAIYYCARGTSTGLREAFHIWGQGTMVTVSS VL: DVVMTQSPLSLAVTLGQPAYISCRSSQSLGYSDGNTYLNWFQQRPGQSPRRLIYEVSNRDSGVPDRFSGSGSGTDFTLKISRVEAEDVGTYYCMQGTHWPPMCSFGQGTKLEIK :: 100%
10P3 (antibody, V domains shown) VH: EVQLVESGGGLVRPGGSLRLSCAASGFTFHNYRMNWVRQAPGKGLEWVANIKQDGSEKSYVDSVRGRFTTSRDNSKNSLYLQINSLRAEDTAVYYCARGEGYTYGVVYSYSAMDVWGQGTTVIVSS VL: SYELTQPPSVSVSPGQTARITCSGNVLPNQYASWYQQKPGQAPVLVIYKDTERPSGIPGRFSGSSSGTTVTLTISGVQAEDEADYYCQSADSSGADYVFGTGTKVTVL :: 0%
15D8 (antibody, V domains shown) VH: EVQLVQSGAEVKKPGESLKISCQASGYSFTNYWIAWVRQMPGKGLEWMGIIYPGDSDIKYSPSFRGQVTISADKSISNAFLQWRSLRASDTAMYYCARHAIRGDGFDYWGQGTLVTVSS VL: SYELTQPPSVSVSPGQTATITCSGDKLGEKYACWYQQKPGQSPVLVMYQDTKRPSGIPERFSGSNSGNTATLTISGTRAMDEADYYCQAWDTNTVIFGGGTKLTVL :: 0%

Turning now to a further binder:
Query: Which Inhibition of binding (%) reading was recorded for the binder 7B13 (antibody, V domains shown) VH: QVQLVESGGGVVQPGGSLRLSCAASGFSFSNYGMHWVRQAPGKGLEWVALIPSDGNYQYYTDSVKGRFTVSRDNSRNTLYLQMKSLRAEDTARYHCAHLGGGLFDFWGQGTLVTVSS VL: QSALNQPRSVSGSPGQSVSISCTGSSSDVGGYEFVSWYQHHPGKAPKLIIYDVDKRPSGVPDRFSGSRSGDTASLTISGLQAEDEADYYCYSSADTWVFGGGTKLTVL ?
Reply: 100%

// data source = patent US20170129940A1
